# System: Klebsiella pneumoniae
# run conditions: Concentration 20 uM; ASSAY_TEST Inhibition of Bacterial Growth; detection method Absorption (OD600); MEDIA CAMHB; plate type 384well; NBS; CORNING #3640; time 18 hr
# Description: Antibacterial activity against Klebsiella pneumoniae MDR ATCC 70063 (CO-ADD:GN_003); MIC in CAMBH media using NBS plates, by OD(600)
Results with a measured potency or affinity are listed apart.
This listing pairs compounds with measured Inhibition.

| compound | measured on | Inhibition (%) |
| --- | --- | --- |
| CC1=CC(=O)C(/C(C)=N/c2ccccc2Cl)C(=O)O1 (stereo not given) | Klebsiella pneumoniae | 12.66 |
| Cc1ccc(Nc2c(O)ncnc2O)cc1C | Klebsiella pneumoniae | 1.1 |
| CCN(CC)CCNc1c(C)cc(CO)c(Cl)c1C.O=S(=O)(O)NC1CCCCC1 | Klebsiella pneumoniae | 7.45 |
| O=C(O)c1ccc2c(c1Sc1ccccc1)C(=O)c1ccccc1C2=O | Klebsiella pneumoniae | 2.65 |
| C(=C\c1ccc(/C=C/c2ccccc2)nn1)/c1ccccc1 | Klebsiella pneumoniae | 18.32 |
| CN(C)/C=N/c1ccc(Cl)c(Cl)c1 | Klebsiella pneumoniae | 19.84 |
| COC(=O)Cc1[nH]c(Cl)nc1C(N)=O | Klebsiella pneumoniae | 2.53 |
| N#CC1=C(Nc2ccccc2Cl)SC(c2ccncc2)NC1=O (stereo not given) | Klebsiella pneumoniae | 12.56 |
| CN1CCC(n2[nH]c(-c3ccccc3)c(Cc3ccccc3)c2=O)CC1 [BENZPIPERYLON] | Klebsiella pneumoniae | 7.59 |
| O=c1[nH]nc(-c2cc(-c3ccccc3)nc3ccccc23)o1 | Klebsiella pneumoniae | 4.91 |
| CN(C)S(=O)(=O)Nc1cccc(Br)c1 | Klebsiella pneumoniae | 2.53 |
| O=C(O)c1cc2cc(OCc3ccccc3)ccc2[nH]1 | Klebsiella pneumoniae | 12.38 |
| Oc1ccccc1-c1nnco1 [FENADIAZOLE] | Klebsiella pneumoniae | 8.02 |
| COC(=O)c1c[n+]([O-])ccc1OC | Klebsiella pneumoniae | 7.09 |
| O=C1c2ccccc2C(=O)C1c1ccccn1 | Klebsiella pneumoniae | 6.77 |
| Cc1cccc(C(O)C(O)c2cccc(C)n2)n1 (stereo not given) | Klebsiella pneumoniae | 7.91 |
| Nc1ccc(NC(=O)c2ccc(C(=O)Nc3ccc(N)cc3)cc2)cc1 | Klebsiella pneumoniae | 3.68 |
| CC(=O)NS(=O)(=O)c1ccc2sc(C)nc2c1 | Klebsiella pneumoniae | 5.23 |
| O=C(O)/C=C/C(=O)N1Cc2cc3ccccc3nc2C1 | Klebsiella pneumoniae | 9.8 |
| S=C1N(c2ccccc2)CN(C2CCCCC2)CN1c1ccccc1 | Klebsiella pneumoniae | 1.62 |
| O=C1CCC(c2ccccc2)(c2ccccc2)CC1 | Klebsiella pneumoniae | -0.79 |
| O=C(O)c1ccccc1-n1c2ccccc2c2ccccc21 | Klebsiella pneumoniae | 10.24 |
| COc1cc(/C=C2\CCOC2=O)cc(OC)c1OC | Klebsiella pneumoniae | 12.15 |
| CC1(C)CC2(C)OC2C2(C1)N=N/C(=N/c1ccccc1)O2 (stereo not given) | Klebsiella pneumoniae | 7.34 |
| CCOC(=O)c1cc(OCC)c2c(ccc3ccccc32)n1 | Klebsiella pneumoniae | 7.15 |
